test system: full-length human HuR protein (Homo sapiens)
Construct: full-length human HuR protein was produced by the KU COBRE-PSF Protein Purification Group
test protocol: FP assay of HuR-Msi1 ARE binding inhibition
assay conditions: HuR-Msi1 ARE interaction; read-out: HuR Ki via FP assay
Counter-ions that a name gives are not always drawn.
test readout: Ki (nM)

INSERT INTO assay_data (molecule, number) VALUES
  ('CN(C)c1ccc(C(=O)Nc2ccc3sc(/C=C/C(=O)NO)cc3c2)cc1', 550),
  ('CN(C)c1ccc(C(=O)Nc2ccc3sc(C(=O)O)cc3c2)cc1 [KH-58A]', 2370),
  ('O=C(Nc1ccc2sc(C(=O)O)cc2c1)c1ccccn1 [KH-60A, hydrochloride]', 1140),
  ('O=C(/C=C/c1cc2cc(NC(=O)c3ccccn3)ccc2s1)NO [KH-47, hydrochloride]', 4440),
  ('CC(C)(C)c1ccc(C(=O)Nc2ccc3[nH]c(/C=C/C(=O)O)cc3c2)cc1 [KH-48A]', 3350),
  ('O=C(O)/C=C/c1cc2cc(NC(=O)c3ccc(S(F)(F)(F)(F)F)cc3)ccc2s1 [KH-33A]', 1200),
  ('CN(C)c1ccc(C(=O)Nc2ccc3sc(CCC(=O)NN)cc3c2)cc1 [KH-38E]', 3560),
  ('O=C(Nc1ccc2sc(C(=O)NO)cc2c1)c1ccccn1', 3230),
  ('CC(C)(C)c1ccc(C(=O)Nc2ccc3sc(C(=O)NO)cc3c2)cc1', 440),
  ('CC(C)(C)c1cccc(C(=O)Nc2ccc3sc(/C=C/C(=O)O)cc3c2)c1 [KH-31A]', 2270);

a = CN(C)c1ccc(C(=O)Nc2ccc3sc(/C=C/C(=O)O)cc3c2)cc1 [KH-36A]
b = CN(C)c1ccc(C(=O)Nc2ccc3[nH]c(C(=O)O)cc3c2)cc1 [KH-57A]
Of a and b , whose reported Ki is the larger number? Reply with the label of the item you choose.
b

P = CC(C)(C)c1ccc(C(=O)Nc2ccc3sc(CCC(N)=O)cc3c2)cc1 [KH-22C]
Q = O=C(O)/C=C/c1cc2cc(NC(=O)c3ccc(C(F)(F)F)cc3)ccc2s1 [KH-32A]
R = CC(C)(C)c1ccc(C(=O)Nc2ccc3sc(CCC(=O)O)cc3c2)cc1 [KH-22A]
Reorder: Ki, max to min. Would you mind listing the labels in the order requested?
P, R, Q
(P: 7000 nM, R: 3830 nM, Q: 1600 nM)

* * *

test system: full-length human HuR protein (Homo sapiens)
Construct: full-length human HuR protein was produced by the KU COBRE-PSF Protein Purification Group
test protocol: FP assay of HuR-Msi1 ARE binding inhibition
assay conditions: HuR-Msi1 ARE interaction; read-out: HuR Ki via FP assay
pKi: −log10 of the molar value. Where a name gives a salt, the structure may show the parent alone.
Measured pKi accompanies every entry in the list below.

INSERT INTO results (compound, test_readout, result) VALUES
  ('CC(C)c1ccc(C(=O)Nc2ccc3sc(CCC(=O)O)cc3c2)cc1 [KH-37A]', 'pKi', '< 4.70'),
  ('O=C(Nc1ccc2[nH]c(C(=O)O)cc2c1)c1ccccn1 [KH-56A, hydrochloride]', 'pKi', '< 4.70');

Recorded pKi of CN(C)c1ccc(C(=O)Nc2ccc3sc(CCC(=O)O)cc3c2)cc1 [KH-38A] , please.
< 4.70

* * *

test system: full-length human HuR protein (Homo sapiens, UniProt Q15717)
Construct: full-length human HuR protein was produced by the KU COBRE-PSF Protein Purification Group
Sequence (Q15717 whole entry): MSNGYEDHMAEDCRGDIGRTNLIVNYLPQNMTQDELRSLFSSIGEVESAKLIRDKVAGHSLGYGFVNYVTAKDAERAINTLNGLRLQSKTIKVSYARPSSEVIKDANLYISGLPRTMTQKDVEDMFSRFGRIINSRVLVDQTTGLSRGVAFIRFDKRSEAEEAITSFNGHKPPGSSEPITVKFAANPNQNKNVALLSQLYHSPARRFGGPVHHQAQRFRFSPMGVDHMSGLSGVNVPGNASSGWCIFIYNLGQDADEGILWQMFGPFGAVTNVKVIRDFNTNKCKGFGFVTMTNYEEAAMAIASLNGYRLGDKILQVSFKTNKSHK
test protocol: FP assay of HuR-Msi1 ARE binding inhibition
assay conditions: HuR-Msi1 ARE interaction; read-out: HuR Ki via FP assay
pKi: −log10 of the molar value.
Measured pKi accompanies every entry in the list below.

Recorded pKi of O=C(O)CCc1cc2cc(NC(=O)c3ccc(F)cc3)ccc2s1 [KH-28A] , please.
< 4.70

Here is the next molecule: CC(C)(C)C(=O)Nc1ccc2sc(/C=C/C(=O)NO)cc2c1 [KH-20]
< 4.70

Here is the next molecule: Cc1ccc(C(=O)Nc2ccc3sc(CCC(=O)O)cc3c2)cc1 [KH-27A]
< 4.70

Here is the next molecule: CC(C)(C)c1ccc(C(=O)Nc2ccc3[nH]c(C(=O)NO)cc3c2)cc1 [KH-39]
6.19
